Test: Bioavailability test in vivo in mice (pharmacokinetics, iv and intragastric)
Parameters: species or system ICR mice
Details: ICR, mouse, plasma, po (intragastric), 10 mg/kg
assay-readout: Tmax (h)

{"columns": ["compound", "Tmax (h)"],
 "data": [
  ["C=CCn1c(=O)c2cnc(Nc3ccc(C4CCC(N5CCC5)CC4)cc3)nc2n1-c1cccc(C(C)(C)O)n1 (single isomer, unassigned) [Compound I-8-1]", 1.67]
]}

a = C=CCn1c(=O)c2cnc(Nc3ccc(N4CCN(C)CC4)cc3)nc2n1-c1cccc(C(C)(C)O)n1 [Control 1, reference compound]
b = C=CCn1c(=O)c2cnc(Nc3ccc(C4CCC(N5CCC5)CC4)cc3)nc2n1-c1cccc(C(C)(C)O)n1 (centres unmarked) [Compound I-8]
Prompt line: // which entry reports the smaller Tmax, a or b ? Give the chosen item's label as your response.
Response line: a

a = C=CCn1c(=O)c2cnc(Nc3ccc4c(c3)CCC(N(C)C)C4)nc2n1-c1cccc(C(C)(C)O)n1 (centres unmarked) [Control 2, reference compound]
b = C=CCn1c(=O)c2cnc(Nc3ccc(C4CCC(N(C)C)CC4)cc3)nc2n1-c1cccc(C(C)(C)O)n1 (single isomer, unassigned)
Prompt line: Form: Entry with minimum Tmax (choose one): a / b Identify your pick by its label.
Response line: a

Attribution: patent US12612408B2
